target: UniProt:P35968; assay: Inhibition of VGFR2 at 10 uM
Sequence (P35968 whole entry): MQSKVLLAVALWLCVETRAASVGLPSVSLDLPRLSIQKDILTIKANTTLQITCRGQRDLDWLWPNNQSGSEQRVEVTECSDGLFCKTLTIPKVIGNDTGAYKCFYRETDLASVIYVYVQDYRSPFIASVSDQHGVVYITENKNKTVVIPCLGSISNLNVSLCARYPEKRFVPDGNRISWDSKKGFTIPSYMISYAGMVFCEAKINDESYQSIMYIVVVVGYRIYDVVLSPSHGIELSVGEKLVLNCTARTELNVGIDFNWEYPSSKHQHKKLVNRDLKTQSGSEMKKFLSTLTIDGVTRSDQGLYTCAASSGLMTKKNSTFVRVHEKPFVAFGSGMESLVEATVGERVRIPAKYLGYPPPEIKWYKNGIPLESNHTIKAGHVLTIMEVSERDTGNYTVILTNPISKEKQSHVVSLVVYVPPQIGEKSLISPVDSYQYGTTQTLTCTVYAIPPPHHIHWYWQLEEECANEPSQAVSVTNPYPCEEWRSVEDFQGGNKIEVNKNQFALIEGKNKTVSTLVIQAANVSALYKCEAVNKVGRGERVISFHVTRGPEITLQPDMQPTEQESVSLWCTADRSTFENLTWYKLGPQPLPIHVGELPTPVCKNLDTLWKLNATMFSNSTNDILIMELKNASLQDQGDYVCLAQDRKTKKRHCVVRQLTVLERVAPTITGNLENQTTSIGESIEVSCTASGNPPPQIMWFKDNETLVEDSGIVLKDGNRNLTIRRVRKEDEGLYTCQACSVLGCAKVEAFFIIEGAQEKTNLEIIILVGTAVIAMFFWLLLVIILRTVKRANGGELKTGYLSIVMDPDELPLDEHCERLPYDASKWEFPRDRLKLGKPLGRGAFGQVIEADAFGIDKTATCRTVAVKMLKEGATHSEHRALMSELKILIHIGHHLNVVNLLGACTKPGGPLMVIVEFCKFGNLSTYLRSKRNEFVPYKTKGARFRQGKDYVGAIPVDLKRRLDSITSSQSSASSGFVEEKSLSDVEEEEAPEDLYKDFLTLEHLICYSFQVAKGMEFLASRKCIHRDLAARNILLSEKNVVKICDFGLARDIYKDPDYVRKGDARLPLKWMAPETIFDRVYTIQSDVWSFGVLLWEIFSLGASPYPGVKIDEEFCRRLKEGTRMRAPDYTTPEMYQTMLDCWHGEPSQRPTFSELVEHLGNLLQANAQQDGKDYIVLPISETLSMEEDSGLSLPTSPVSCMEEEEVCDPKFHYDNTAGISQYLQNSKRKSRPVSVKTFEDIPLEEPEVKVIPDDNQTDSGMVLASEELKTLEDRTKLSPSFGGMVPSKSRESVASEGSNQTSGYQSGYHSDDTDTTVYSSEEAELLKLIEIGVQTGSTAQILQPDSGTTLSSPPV
Activity calls are given as the source filed them. No cut-off for these calls is given here.
recorded.metric: inhibition

Worked examples follow.
{"molecular.string": "Nc1cc(F)ccc1Nc1ccc2c(c1)Cc1ccccc1C(=O)C2", "recorded.metric": "inhibition", "endpoint.result": "inactive"}
{"molecular.string": "Nc1cc(F)ccc1Nc1ccc2c(c1)Oc1ccccc1NC2=O", "recorded.metric": "inhibition", "endpoint.result": "inactive"}
{"molecular.string": "O=C1Cc2ccccc2Cc2cc(-c3ccccc3)ccc21", "recorded.metric": "inhibition", "endpoint.result": "inactive"}
{"molecular.string": "Nc1ccccc1Nc1ccc2c(c1)C(=O)Cc1ccccc1C2", "recorded.metric": "inhibition", "endpoint.result": "inactive"}
{"molecular.string": "Nc1cc(F)ccc1Nc1ccc2c(c1)Cc1ccccc1CC2=O", "recorded.metric": "inhibition", "endpoint.result": "inactive"}
{"molecular.string": "Nc1ccccc1Nc1ccc2c(c1)Oc1ccccc1NC2=O", "recorded.metric": "inhibition", "endpoint.result": "inactive"}

Please state inhibition for every compound in the list that follows.
1. O=C1Cc2ccccc2Cc2cc(Nc3ccc(F)cc3F)ccc21
2. O=C1Cc2cc(Nc3ccccc3)ccc2Cc2ccccc21
3. Nc1cc(F)ccc1Nc1ccc2c(c1)CC(=O)c1ccccc1C2
4. O=C1Cc2ccccc2Cc2cc(NCc3ccccc3)ccc21

Response line:
1: inactive; 2: inactive; 3: inactive; 4: inactive

Please state inhibition for every compound in the list that follows.
1. O=C1Cc2ccccc2Cc2cc(Nc3ccccc3)ccc21
2. Nc1ccccc1Nc1ccc2c(c1)Cc1ccccc1CC2=O
3. Nc1ccccc1Nc1ccc2c(c1)CC(=O)c1ccccc1C2

Response line:
1. inactive
2. inactive
3. inactive

Data credit: ChEMBL document CHEMBL1157789
